Overview of recorded EC50 for various compounds
System: CEM cells HIV-1 protection, formazan growth assay
Experiment: NCI AIDS Antiviral Assay
RECORDED_ENDPOINT: EC50

| COMPOUND | RECORDED_ENDPOINT | RESULT |
| --- | --- | --- |
| COc1ccc(N=NC(=O)NC(CC(C)C)C(=O)NCC(=O)O)cc1 (stereo unspecified) | EC50 | > 200 µM |
| O=C1C=CC(O)=CC1=P(c1ccccc1)(c1ccccc1)c1ccccc1 | EC50 | > 200 µM |
| CC(=O)N(C)c1ccc2c(ccc[n+]2[O-])c1[N+](=O)[O-] | EC50 | > 955 µM |
| Cc1cc(N(CCC#N)S(=O)(=O)c2ccccc2)ccc1/C=C1\N=C(c2ccc(Cl)cc2)OC1=O | EC50 | > 257 µM |
| Fc1ccc(NC(=S)Nc2ccccn2)cc1 | EC50 | > 158 µM |
| c1ccc2c(c1)Nc1ccccc1O2 | EC50 | > 97.7 µM |

---

Test system: CEM cells HIV-1 protection, formazan growth assay
Assay: NCI AIDS Antiviral Assay
Active and inactive are the calls of the source.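 The calls were made as follows: active = compounds giving half or more protection of infected cells from virus-caused growth loss, again on retest; inactive = the rest.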
Labels: active, inactive

| MOLECULE | LABEL |
| --- | --- |
| COc1cc2c3cc1Oc1c(OC)c(OC)cc4c1[C@@H](Cc1ccc(O)c(c1)Oc1ccc(cc1)C[C@@H]3N(C)CC2)N(C)CC4 | inactive |
| COC(=O)/C=C1\C[C@H]2O[C@@](O)(C1)[C@H](C)C(=O)O[C@H]1C[C@@H](C=C(C)C)O[C@@H](CC3(O)O[C@H](CC[C@H]2O)[C@@H](C)[C@]2(O)CC[C@@H](C)C(=O)C32)[C@H]1C (some centres undefined) | inactive |
| CCOC(=O)C(C)(c1cn(C)c2ccccc12)c1cn(C)c2ccccc12 | inactive |
| O=C(c1ccccc1)N1OCCC1Nc1ccc(Br)cc1 (centres undefined) | inactive |
| COc1ccc2c3c(cnc2c1)P(C)(=O)CC3 (centres undefined) | inactive |
| NCCCC1CCCCNC1 (centres undefined) | inactive |
| O=C(O)CCOCCCCCCCCCl | inactive |
| COc1cccc(CCNC(=O)CC#N)c1 | inactive |
| O=C1C=Cc2c(-c3ccccc3)oc3cccc1c23 | inactive |
| COCCCCCCCCCCC(=O)OCC1OC(n2cc(C)c(=O)[nH]c2=O)CC1N=[N+]=[N-] (centres undefined) | active |
| COC1CC(N)C(O)C(CN=[N+]=[N-])O1 (centres undefined) | inactive |
| O=C(c1cccc(Cl)c1)c1c(O)c2ccccc2oc1=O | inactive |
| CC1CC(=O)C2CC(CO)=CCCC2C1(C)CC/C(=C/CO)CO (centres undefined) | inactive |
| CCCCCCCCCCCCC1=C(OC)C(=O)c2ccc(C)nc2C1=O | inactive |

---

Tested on: CEM cells HIV-1 protection, formazan growth assay
Test: NCI AIDS Antiviral Assay
Settings: measured here: growth of uninfected CEM cells
Overview of recorded IC50 for various compounds
RECORDED_ENDPOINT: IC50 (µM)

| COMPOUND | VALUE_UNIT | QUALIFIER_SIGN | NUMERIC_RESULT |
| --- | --- | --- | --- |
| NC(=S)Nc1ccc2c(c1)oc1ccccc12 | µM | > | 200 |
| Nc1nc(N)c(N=O)c(=O)[nH]1.[Cd] | µM | = | 1.74 |
| C[C@H]1CC[C@@]2(OC1)O[C@H]1C[C@H]3[C@@H]4CC[C@@H]5C[C@@H](OC6OC(CO)C(O)C(O)C6OC6OC(CO)C(O)C(O)C6O)CC[C@]5(C)[C@H]4CC[C@]3(C)[C@H]1[C@@H]2C (stereo not given in full) | µM | = | 5.25 |
| O=c1[nH]c(=O)n(COCCO)c2ccc(Br)cc12 | µM | > | 200 |
| COc1ccc2c(c1)OC[C@@H]1c3cc(NC(=O)c4ccccc4)c(OC)cc3N(S(=O)(=O)c3ccccc3)[C@H]21 | µM | > | 200 |
| NP(N)(=O)Nc1ccccc1 | µM | > | 200 |
| C(=C/P(c1ccccc1)c1ccccc1)/P(c1ccccc1)c1ccccc1.C(=CP(c1ccccc1)c1ccccc1)P(c1ccccc1)c1ccccc1.[Pt] | µM | = | 2.63 |
| CCCCc1c2c(nc3c1CCc1cc4cc5c(nc4nc1-3)-c1nc3c(c(CCCC)c1CC5)CCCC3)CCCC2 | µM | > | 0.977 |
| Cc1cn(C2CC(n3cncn3)C(C(C)O)O2)c(=O)[nH]c1=O (stereo not given) | µM | > | 813 |
| O=C(CCCN1CCC2(CC1)CC(=O)N(N1CCCCCC1)C2=O)c1ccccc1 | µM | = | 182 |
